test: soluble on expression in E. coli; label from the status in PepcDB or PDB records

- sequence-chain: "HPECKKSVEDVNNDLKKFVSINGKKTVTEFHRELGKIMWNNVGMARSEESCKEALKVIPQIREEFWKNVKVSGSGAEFNQQLENAGRVADFLEFAELMTLDALHRNESCGGHFRVEHQMPD"
  soluble on expression in E. coli: "not soluble"
- sequence-chain: "MLGTISMRFFATKVVAPRASVAASTPQVPLGMNINPYAMFIKENFKANTSDMKRTDLMKELSGKWKALSISEKDKYTELSKNYNAQKLDDFMKLSTEEQKKLVDSAKEKKAERASRRHAKERREKRKQSGRPSVPPSAYALFIKEKLSGAGMESKEKMKEAVAQWKAFTDSQKKKYTDEAKKLKDEYHVVLQKWEAEQKENADQ"
  soluble on expression in E. coli: "not soluble"
- sequence-chain: "GSHMPNYDTSIDIEDIKKILPHRYPFLLVDKVIYMQPNKTIIGLKQVSTNEPFFNGHFPQKQIMPGVLQIEALAQLAGILCLKSDDSQKNNLFLFAGVDGVRWKKPVLPGDTLTMQANLISFKSSLGIAKLSGVGYVNGKVVINISEMTFALSK"
  soluble on expression in E. coli: "soluble"
- sequence-chain: "MIFTYNREHVGDTLMVIVKDSQGAKLDVDRRGQVARVYLQDSKETVAWNIFEVSSLIVIEGAGQITLSDQDIKILNAELLKEGFEDSLVNNIEPTFVVAQIKEIIDHPDSDHLHICQAEINDGKTVQIVCGAPNASVGLKTVAALPGAMMPNGSLIFPGKLRGEDSFGMLCSARELALPNAPQVRGIIELSDQVIVGESFDANKHWKNLEHHHHHH"
  soluble on expression in E. coli: "soluble"
- sequence-chain: "MSKRNTQQRRHNIIADLNAQGEVSVDSLAKQFDTSEVTIRKDLAALETSGLLLRRYGGAVALPSEITEAKVDQLSQQKLHIAKKAAMLIRDHNRIIIDSGQTTSALVSELANKKGLVVMTNALSIANEIHALENEPTLLMTGGTWDATSEAFQGQVAEQVLRSYDFDQLFIGADGIDIKRGTTTFNELIGLSRVMAEVAREVIVMVESAKITKKIPNLELNWQQIHTVITDDGLSEEMRIALTEQGVKLIIAKGLEHHHHHH"
  soluble on expression in E. coli: "soluble"
- sequence-chain: "MREWINQSKIDLLAKEIGEENVPILVNIFLGELNDYQSKLVSDTVADKLGYLKEISHALKSSAASFGADRLCAKAVELDSRAKSGEMMDISLEVEHMLELLKQTHQCYSDLVH"
  soluble on expression in E. coli: "not soluble"
- sequence-chain: "MIFEKAVIVDLRTQVLDVPVQETITKDNVPVRVNAVVYFRVVDPVKAVTQVKNYIMATSQISQTTLRSVIGQAHLDELLSERDKLNMQLQRIIDEATDPWGIKVTAVEIKDVELPAGMQKAMARQAEAERERRARITLAEAERQAAEKLREAAEIISEHPMALQLRTLQTISDVAGDKSNLEHHHHHH"
  soluble on expression in E. coli: "soluble"

----------
assay: soluble on expression in E. coli; label from the status in PepcDB or PDB records

- sequence-chain: "MGSWGMEALESDEGLDLINWVEEQLQDDSTFDAESIVQRLSQHEDLFGFQGDEEFLYDNNVIGLVELIIQKAAGEKITSSKQIDQLDSYRLTSIFSKKLQGRLQTIDDTHEWIMLFEGRAREKAKAYLIEITDKLRVVKTTA"
  soluble on expression in E. coli: "soluble"
- sequence-chain: "MSLQRGAGQYFAGKRCFVTGAASGIGRATALRLAAQGAELYLTDRDRDGLAQTVCDARALGAQVPEHRVLDVSDYQDVAAFAADIHARHPSMDVVLNIAGVSAWGTVDQLTHDQWSRMVAINLMGPIHVIETLVPPMVAAGRGGHLVNVSSAAGLVGLPWHAAYSASKYGLRGLSEVLRFDLARHGIGVSVVVPGAVKTPLVNTVEIAGVDRDDPRVNRWVERFSGHAVTPEKAADKILAGVTRNRYLVYTSADIRALYAFKRYAWWPYTLVMRRVNVFFTRALRPGEGHHHHHH"
  soluble on expression in E. coli: "soluble"
- sequence-chain: "MAMSKVKSITRESWILSTFPEWGSWLNEEIEQEQVAPGTFAMWWLGCTGIWLKSEGGTNVCVDFWCGTGKQSHGNPLMKQGHQMQRMAGVKKLQPNLRTTPFVLDPFAIRQIDAVLATHDHNDHIDVNVAAAVMQNCADDVPFIGPKTCVDLWIGWGVPKERCIVVKPGDVVKVKDIEIHALDAFDRTALITLPADQKAAGVLPDGMDDRAVNYLFKTPGGSLYHSGDSHYSNYYAKHGNEHQIDVALGSYGENPRGITDKMTSADMLRMGEALNAKVVIPFHHDIWSNFQADPQEIRVLWEIKKDRLKYGFKPFIWQVGGKFTWPLDKDNFEYHYPRGFDDCFTIEPDLPFKSFL"
  soluble on expression in E. coli: "not soluble"
- sequence-chain: "MTIVAENLTKHLSNLSKRGPHRVLVGDLDYVGLPGKIYTPAEGNGLPAVVFAHDWMQDISRYHATLRHLASWGIVVAAPNTEKGISPNHRGFAADIETSLQVLTGVKLGAGNISVAPGRLGIVGHGMGAGAAVLAAADRPQIAAVAAIYPSQVSPSADVAARNVEAAGLVLGTEENAMFDFGNAAKLALEWKGPVAYREIDRASHQTLTENTLFKRVTGLGGTNTAARERIRGVVTGFLLHQLADQKKYSGFSEADATGKKVHSYWGEELQERASLTGDSKLTLFKS"
  soluble on expression in E. coli: "not soluble"
- sequence-chain: "PDAPRNLQLSLPREAEGVIVGHWAPPIHTHGLIREYIVEYSRSGSKMWASQRAASNFTEIKNLLVNTLYTVRVAAVTSRGIGNWSDSKSITTIKG"
  soluble on expression in E. coli: "soluble"
- sequence-chain: "RIAISNSNRTRSVPSLTTIWSISPTPNCSIYETQDANLFLCLTKNGAHVLGTITIKGLKGALREMHDNALSLKLPFDNQGNLLNCALESSTWRYQETNAVASNALTFMPNSTVYPRNKTAHPGNMLIQISPNITFSVVYNEINSGYAFTFKWSAEPGKPFHPPTAVFCYITEQGSHHHHHH"
  soluble on expression in E. coli: "soluble"
